Target: rat mGluR5 (Rattus norvegicus)
Sequence (P31424 21-1171 isoform P31424-2 limits assumed): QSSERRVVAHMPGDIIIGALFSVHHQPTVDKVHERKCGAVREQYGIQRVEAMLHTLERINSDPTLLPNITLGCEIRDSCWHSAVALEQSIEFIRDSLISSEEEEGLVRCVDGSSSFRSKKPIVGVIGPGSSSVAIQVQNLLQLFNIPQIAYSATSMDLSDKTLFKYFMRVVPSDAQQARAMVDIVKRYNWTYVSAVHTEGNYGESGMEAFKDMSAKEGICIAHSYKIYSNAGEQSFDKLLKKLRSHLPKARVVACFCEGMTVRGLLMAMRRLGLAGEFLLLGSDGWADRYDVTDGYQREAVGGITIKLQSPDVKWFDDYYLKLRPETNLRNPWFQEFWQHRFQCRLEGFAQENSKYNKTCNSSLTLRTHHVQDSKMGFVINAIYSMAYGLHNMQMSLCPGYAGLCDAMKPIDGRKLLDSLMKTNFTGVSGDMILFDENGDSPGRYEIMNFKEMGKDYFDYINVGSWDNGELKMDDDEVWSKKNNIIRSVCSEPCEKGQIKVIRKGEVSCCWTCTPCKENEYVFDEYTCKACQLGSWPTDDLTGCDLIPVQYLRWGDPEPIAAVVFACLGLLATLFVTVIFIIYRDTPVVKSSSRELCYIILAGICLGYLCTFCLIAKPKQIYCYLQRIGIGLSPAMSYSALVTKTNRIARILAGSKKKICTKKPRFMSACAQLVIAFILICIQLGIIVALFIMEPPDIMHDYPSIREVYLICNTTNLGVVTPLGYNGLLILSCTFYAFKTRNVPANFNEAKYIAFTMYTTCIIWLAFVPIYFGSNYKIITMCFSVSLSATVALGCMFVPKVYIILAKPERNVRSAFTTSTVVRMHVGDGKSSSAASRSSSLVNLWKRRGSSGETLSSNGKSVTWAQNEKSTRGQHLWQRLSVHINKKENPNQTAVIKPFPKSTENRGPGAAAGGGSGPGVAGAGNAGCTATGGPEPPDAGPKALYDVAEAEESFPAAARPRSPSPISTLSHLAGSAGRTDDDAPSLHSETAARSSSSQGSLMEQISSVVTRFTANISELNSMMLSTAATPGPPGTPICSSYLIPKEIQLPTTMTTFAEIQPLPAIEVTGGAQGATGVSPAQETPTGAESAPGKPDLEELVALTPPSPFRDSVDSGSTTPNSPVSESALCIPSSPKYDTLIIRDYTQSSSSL
Assay: mGluR5 assay on HEK-expressing rat mGluR5 (fluorescent cell based Ca2+ mobilization assay)
Settings: HEK-293 cells stably expressing rat mGluR5; no co-addition of glutamate; mean of at least three independent experiments in duplicate; read-out: Ca++ Flux (mean EC50)
pEC50: −log10 of the molar value.
recordedEndpoint: pEC50

# annotated cases, reported pEC50 shown
structureSmilesString: Cc1ncc(-c2noc([C@H]3CCCN(C(=O)c4ccc(F)nc4)C3)n2)s1
pEC50: < 5.00
--
structureSmilesString: O=C(c1ccc(F)c(F)c1)N1CCC[C@H](c2nc(-c3ccc(F)cc3F)no2)C1
pEC50: > 6.00
--
structureSmilesString: Cc1c[nH]cc1C(=O)N1CCC[C@H](c2nc(-c3ccc(F)cc3)no2)C1
pEC50: 5.00 to 6.00
--
structureSmilesString: O=C(c1ccc(F)cc1)N1CCC=C(c2nc(-c3ccc(F)cc3)no2)C1
pEC50: 5.00 to 6.00
--
structureSmilesString: Cc1oncc1C(=O)N1CCC[C@H](c2nc(-c3ccccc3F)no2)C1
pEC50: > 6.00

Query: // lookup pEC50 for O=C(c1ccc(F)c(F)c1)N1CCC[C@H](c2nc(-c3ccsc3)no2)C1
Response: > 6.00

Query: Query Cc1cc(C(=O)N2CCC[C@H](c3nc(-c4ccc(F)cc4)no3)C2)c(C)n1C next
Response: 5.00 to 6.00

Query: Next: O=C(c1ccc(F)c(F)c1)N1CCC[C@H](c2nc(-c3ccccn3)no2)C1
Response: > 6.00
